// H1.0 immunofluorescence intensity lookup, one value per entry
System: HCC1569
Assay: H1.0 immunofluorescence intensity relative to DMSO (% of DMSO); higher = stronger H1.0 induction, active = 140 or more
Conditions: concentration: 10 µM; 24 h
The response must contain the number and no unit.

Sample records with H1.0 immunofluorescence intensity:
MOLECULE	H1.0 immunofluorescence intensity
O=[N+]([O-])C=Cc1ccc2c(c1)OCO2	99.6
CNC1CC2OC(C)(C1OC)n1c3ccccc3c3c4c(c5c6ccccc6n2c5c31)C(=O)NC4 (configuration not stated)	84.1

-- ask Report its H1.0 immunofluorescence intensity with HCC1569 as the test system: `CCCn1c(C)c(C(=O)c2cccc3ccccc23)c2ccccc21`
-- reply 100

-- ask Report its H1.0 immunofluorescence intensity with HCC1569 as the test system: CC(C)C1(NC(=O)C2C=C3c4cccc5[nH]cc(c45)CC3N(C)C2)OC2(O)C3CCCN3C(=O)C(Cc3ccccc3)N2C1=O (configuration not stated)
-- reply 90.3

-- ask Report its H1.0 immunofluorescence intensity with HCC1569 as the test system: `NC(=S)NN=Cc1coc2ccccc2c1=O.[Cl][Cu][Cl]`
-- reply 100

-- ask Report its H1.0 immunofluorescence intensity with HCC1569 as the test system: CN1CC(NS(=O)(=O)N(C)C)CC2c3cccc4c3c(cn4C)CC21 (configuration not stated)
-- reply 120

-- ask Report its H1.0 immunofluorescence intensity with HCC1569 as the test system: Cc1c(N)nc(C(CC(N)=O)NCC(N)C(N)=O)nc1C(=O)NC(C(=O)NC(C)C(O)C(C)C(=O)NC(C(=O)NCCc1nc(-c2nc(C(=O)NCCC[S+](C)C)cs2)cs1)C(C)O)C(OC1OC(CO)C(O)C(O)C1OC1OC(CO)C(O)C(OC(N)=O)C1O)c1cnc[nH]1.O=S(=O)([O-])O (configuration not stated) [Bleomycin sulfate]
-- reply 99.1

----------
// cell number lookup, one value per entry
Test system: TDF
Assay: cell number relative to DMSO (% of DMSO); higher = more cells (less growth inhibition / toxicity)
Settings: concentration: 10 µM; 24 h
The response must contain the number and no unit.

Sample records with cell number:
MOLECULE	cell number
CCCCCC=CCC=CCC=CCC=CCCCCCC(=O)NCCO [Anandamide (22:4,n-6)]	104
Cl.NCC(O)c1cc(O)c(O)cc1F (stereo not drawn) [6-Fluoronorepinephrine hydrochloride]	111
Br.CCC1CN2CCc3cc(OC)c(OC)cc3C2CC1CC1NCCc2cc(O)c(OC)cc21 (stereo not drawn)	21.4
CC12CCC3C(CCC4CC(O)CCC43C)C1CCC2=O (stereo not drawn)	113
COc1cc(C2c3cc4c(cc3C(O)C3COC(=O)C23)OCO4)cc(OC)c1OC (stereo not drawn) [Picropodophyllin]	10.9
CCCN(CCC)C1CCc2c(F)ccc(O)c2C1.Cl (stereo not drawn) [S(-)-UH-301 hydrochloride]	97.9
CC(N)C(O)c1ccccc1 (stereo not drawn)	94
CC(C)(C)c1cc(C=C(C#N)C#N)cc(C(C)(C)C)c1O	47

-- ask Identify measured cell number associated with CS(=O)(=O)O.Oc1ccc2c3c1OC1c4oc5ccccc5c4CC4(O)C(C2)N(CC2CC2)CCC314 (stereo not drawn) [Naltriben methanesulfonate]
-- reply 105

-- ask Identify measured cell number associated with Cl.NN=C(N)N [Aminoguanidine hydrochloride]
-- reply 109

-- ask Identify measured cell number associated with CCCCCCC(C)(C)c1ccc(C2CC(O)CCC2CCCO)c(O)c1 (stereo not drawn)
-- reply 109

-- ask Identify measured cell number associated with CC(C)NCC(O)c1ccc(N)c(C#N)c1 (stereo not drawn)
-- reply 108

-- ask Identify measured cell number associated with CCOC(=O)c1ncn2c1C1CCCN1C(=O)c1cc(OC)ccc1-2 (stereo not drawn)
-- reply 108

-- ask Identify measured cell number associated with `N#CC(C#N)=Cc1ccc(O)c(O)c1`
-- reply 93.1

-- ask Identify measured cell number associated with Br.C=CCN1CCc2cccc3c2C1Cc1ccc(O)c(O)c1-3 (stereo not drawn) [R(-)-N-Allylnorapomorphine hydrobromide]
-- reply 85.6

-- ask Identify measured cell number associated with CC1OC(OC2CC(O)C3(CO)C4C(O)CC5(C)C(C6COC(=O)C6)CCC5(O)C4CCC3(O)C2)C(O)C(O)C1O (stereo not drawn) [Dihydroouabain]
-- reply 43.7

-- ask Identify measured cell number associated with C=CCN1CCC23c4c5ccc(O)c4OC2C(=O)CCC3(O)C1C5.Cl (stereo not drawn) [Naloxone hydrochloride]
-- reply 98.9

-- ask Identify measured cell number associated with O=C(O)C1CCN1 (stereo not drawn)
-- reply 103

-- ask Identify measured cell number associated with CC1OC(C[N+](C)(C)C)CC1O.[Cl-] (single isomer, unassigned; (+)) [(+)-Muscarine chloride]
-- reply 116

-- ask Identify measured cell number associated with C=C1CC2C(CCC3(C)C(=O)CCC23)C2(C)C=CC(=O)C=C12 (stereo not drawn)
-- reply 97.4

-- ask Identify measured cell number associated with CCC1C(C)=NN=C(c2ccc(OC)c(OC)c2)c2cc(OC)c(OC)cc21 (stereo not drawn)
-- reply 103

-- ask Identify measured cell number associated with CCCCCCCCC(=O)NCc1ccc(O)c(OC)c1 [N-Vanillylnonanamide]
-- reply 81.3

-- ask Identify measured cell number associated with NC(=NCCCC(N)C(=O)O)N[N+](=O)[O-] (stereo not drawn)
-- reply 96.7

-- ask Identify measured cell number associated with Br.NCc1cc(=O)[nH]o1 [Muscimol hydrobromide]
-- reply 119

-- ask Identify measured cell number associated with Br.COC(=O)C1=CCCN(C)C1 [Arecoline hydrobromide]
-- reply 102

-- ask Identify measured cell number associated with CC(C)C1(NC(=O)C2CC3c4cccc5[nH]cc(c45)CC3N(C)C2)OC2(O)C3CCCN3C(=O)C(Cc3ccccc3)N2C1=O.CS(=O)(=O)O (stereo not drawn) [Dihydroergocristine mesylate]
-- reply 110

-- ask Identify measured cell number associated with `Cc1cc(O)c2c(=O)c3c(O)cc(O)c4c5c(O)cc(O)c6c(=O)c7c(O)cc(C)c8c1c2c(c34)c(c78)c65`
-- reply 100

-- ask Identify measured cell number associated with NC(CCCCCP(=O)(O)O)C(=O)O (stereo not drawn) [D(-)-2-Amino-7-phosphonoheptanoic acid]
-- reply 95.2

-- ask Identify measured cell number associated with CCN(CC)c1ncnc2c1ncn2C1OC(COP(=O)([O-])OP(=O)([O-])C(Br)(Br)P(=O)([O-])O)C(O)C1O.[Na+].[Na+].[Na+] (stereo not drawn)
-- reply 101

-- ask Identify measured cell number associated with C[N+]1(C)C2CC(OC(=O)C(CO)c3ccccc3)CC1C1OC12.[Br-] (single isomer, unassigned; (-)) [(-)-Scopolamine methyl bromide]
-- reply 98.8

-- ask Identify measured cell number associated with CC12CCC3C(CC=C4CC(O)CCC43C)C1CCC2=O (stereo not drawn) [Dehydroepiandrosterone]
-- reply 107

-- ask Identify measured cell number associated with CCCN1CCCC2Cc3[nH]ncc3CC21.Cl (single isomer, unassigned; (-)) [(-)-Quinpirole hydrochloride]
-- reply 101

-- ask Identify measured cell number associated with `C[N+](C)(C)CC#CCOC(=O)Nc1cccc(Cl)c1.[Cl-]`
-- reply 99.2

----------
// cell number lookup, one value per entry
System: HCC1569
Experiment: cell number relative to DMSO (% of DMSO); higher = more cells (less growth inhibition / toxicity)
Conditions: concentration: 10 µM; 24 h
The response must contain the number and no unit.

Sample records with cell number:
> print(dat)
                                   compound  measured.target  value.observed
1                            C1CCc2nnnn2CC1          HCC1569             102
2  COc1ccc2c(c1)N1C(C=C(C)C)OOC(C)(C)CC3C1C2C(O)C1(O)C(=O)N2CCCC2C(=O)N31 (centres undefined)          HCC1569             102

-- ask Identify measured cell number associated with CCCCCC(C=CC=CCC=CCC=CCCCC(=O)O)OO (centres undefined)
-- reply 106

-- ask Identify measured cell number associated with CN1CC(CO)CC2c3cccc4[nH]cc(c34)CC21 (centres undefined) [9,10-Dihydrolysergol]
-- reply 96.5

-- ask Identify measured cell number associated with Cl.NN=C(N)N [Aminoguanidine hydrochloride]
-- reply 105

-- ask Identify measured cell number associated with C#CC1(O)CCC2C3CCC4=CC(=O)CCC4=C3C=CC21CC (centres undefined)
-- reply 99.4

-- ask Identify measured cell number associated with CNC(=O)Oc1ccc2c(c1)C1(C)CCN(C)C1N2C (single isomer, unassigned; (-)) [(-)-Physostigmine]
-- reply 98.8

-- ask Identify measured cell number associated with Br.CC1NCCc2cc(O)c(O)cc21 (centres undefined)
-- reply 100

-- ask Identify measured cell number associated with `Nc1ccc(CCN2CCN(c3cccc(C(F)(F)F)c3)CC2)cc1`
-- reply 95.1
